Tested on: SF-295 CNS
Assay: NCI tumour cell line growth inhibition, 48 h
measured parameter: GI50

- compound: "COc1ccc2c(c1)C(c1ccccc1Cl)=Nc1c(n[nH]c1C)N2"
  assay system: "SF-295 CNS"
  observed value: "> 25 µM"
- compound: "O=C(NC1CCN(Cc2ccccc2)CC1)c1cc2nc(-c3ccc(Cl)s3)cc(C(F)(F)F)n2n1"
  assay system: "SF-295 CNS"
  observed value: "> 100 µM"

// batch mode: one GI50 value per listed entry
1. O=C(c1ccco1)c1c(C(F)(F)F)n([O-])c2ccccc2[n+]1=O
2. O=C(O)c1ccc(N/C=C2\C(=O)c3ccccc3OC2O)cc1O (stereo unspecified)
3. C=C1C(=O)O[C@H]2[C@H]1CC/C(COC(=O)CSCC(=O)OC/C1=C/CC[C@@]3(C)O[C@H]3[C@H]3OC(=O)C(=C)[C@@H]3CC1)=C\CC[C@@]1(C)O[C@@H]21
4. Cc1c(C)[n+](=O)c(C)c(C)n1[O-]

// result
1: 1.32 µM; 2: 5.96 µg/mL; 3: 10.2 µM; 4: > 100 µM

---

Task for the reader: assign each of the following compounds its reported TGI.
System: OVCAR-4 ovarian
Experiment: NCI tumour cell line growth inhibition, 48 h

Here are 10 compounds together with their reported answers.
- compound: "O=C(c1ccco1)c1c(C(F)(F)F)n([O-])c2ccccc2[n+]1=O"
  assay system: "OVCAR-4 ovarian"
  observed value: "15.4 µM"
- compound: "C1CCC(OC2CSC2)OC1 (stereo unspecified)"
  assay system: "OVCAR-4 ovarian"
  observed value: "> 100 µM"
- compound: "CCN1c2ccccc2C(Cl)(c2ccc(N(C)C)cc2)c2ccccc21"
  assay system: "OVCAR-4 ovarian"
  observed value: "25.3 µM"
- compound: "COc1ccc2c(c1)N=C1CSC(c3ccccc3Cl)N1C2 (stereo unspecified)"
  assay system: "OVCAR-4 ovarian"
  observed value: "35.6 µM"
- compound: "COC(=O)/C=C/c1cc(O)c2c(c1)[C@H](C(=O)OC)[C@@H](c1ccc(O)c(O)c1)O2"
  assay system: "OVCAR-4 ovarian"
  observed value: "> 100 µM"
- compound: "O=S1(=O)c2ccccc2C(=NO)c2ccccc21"
  assay system: "OVCAR-4 ovarian"
  observed value: "> 100 µM"
- compound: "COc1cccc(/C=C/c2cnc3ccccc3n2)c1OC"
  assay system: "OVCAR-4 ovarian"
  observed value: "> 100 µM"
- compound: "C/C(=N\\N=C(/[Se])N1CC2CCC(CC2)C1)c1ccccn1"
  assay system: "OVCAR-4 ovarian"
  observed value: "2.56 µM"
- compound: "O=C1c2c(nc3ccccc3c2-c2ccccc2)CN1Nc1ccccn1"
  assay system: "OVCAR-4 ovarian"
  observed value: "> 100 µM"
- compound: "C/C(=N\\NC(N)=S)C(CN(CC(C)C)CC(C)C)C(=O)Nc1ccc(C)cc1C (stereo unspecified)"
  assay system: "OVCAR-4 ovarian"
  observed value: "> 100 µM"

Summary: CC(C)(C)C1(COC(=O)c2ccc(N)cc2)COC1 , OVCAR-4 ovarian, TGI = > 100 µM

---

Test system: 786-0 renal
Assay: NCI tumour cell line growth inhibition, 48 h
Would you kindly list log10 of TGI for each of these molecules?
Use the decimal logarithm of TGI (µM).

- molecule: "Cc1cc(=O)oc2cc(OCc3c(F)cccc3Cl)ccc12"
  measured parameter: "log10 of TGI"
  observed value: 1.60
- molecule: "Cc1cc(-c2nc3ccccc3s2)ccc1NC(=O)[C@H](C)N"
  measured parameter: "log10 of TGI"
  observed value: 1.37
- molecule: "CCN1c2ccccc2C(Cl)(c2ccc(N(C)C)cc2)c2ccccc21"
  measured parameter: "log10 of TGI"
  observed value: 1.36
- molecule: "COc1cc2c[n+](C)c3c4ccccc4ccc3c2cc1OC (tested in a mixture with another compound)"
  measured parameter: "log10 of TGI"
  observed value: 1.60
- molecule: "CC(=O)OC1CC2(O)C3CCC4CC(O)CCC4(C)C3CCC2(C)C1C1=CC(=O)OC1 (stereo not given)"
  measured parameter: "log10 of TGI"
  observed value: -0.97
- molecule: "COc1ccc2nc3cc(Cl)ccc3c(NCCCNCCC(C)O)c2c1 (stereo not given)"
  measured parameter: "log10 of TGI"
  observed value: 0.29

Noted for CCOC(=O)/C=C/C(C(=O)/C=C/c1ccc(O)c(OC)c1)=C(O)\C=C\c1ccc(O)c(OC)c1 : its log10 of TGI reads 0.82
